Test system: RPMI-8226 leukemia
Test: NCI tumour cell line growth inhibition, 48 h
Measured TGI values are reported for all entries that follow.
measured.quantity: TGI

compound=O=c1c2ccccc2c(C=NCCNCCO)c2oc3ccccc3n12 measured_quantity=TGI reported_result="31.6 µM"
compound="CCC1(c2ccncc2)CCC(=O)NC1=O (stereo not given)" measured_quantity=TGI reported_result="> 100 µM"
compound=CN(C)CCNc1ccc2nnn3c4ccc(Cl)cc4c(=O)c1c23 measured_quantity=TGI reported_result="25.4 µM"
compound="C/C(=C\\c1ccccc1)C(O)S(=O)(=O)O (stereo not given)" measured_quantity=TGI reported_result="> 100 µM"
compound=Clc1ccc(OCc2nnc(CCCCCCCCc3nnc(COc4ccc(Cl)cc4)o3)o2)cc1 measured_quantity=TGI reported_result="> 100 µM"
compound=Nc1nonc1-c1noc(-c2nonc2N)[n+]1[O-] measured_quantity=TGI reported_result="> 100 µM"
compound=C/C(CC(=O)Nc1ccc(C)cc1)=N\NC(N)=S measured_quantity=TGI reported_result="> 100 µM"
compound="CCOC(=O)C1=C(C)N2CCCOC2(C)C(C(=O)OC)C1c1cccc([N+](=O)[O-])c1 (stereo not given)" measured_quantity=TGI reported_result="> 100 µM"
compound="O=C1c2ccccc2N2OC3C4CCC(C4)C3C12c1ccccc1 (stereo not given)" measured_quantity=TGI reported_result="> 100 µM"
compound=CCC(=O)[O-].CCC(=O)[O-].N.N.N.N.[Co+3].[O-][Cl+3]([O-])([O-])[O-] measured_quantity=TGI reported_result="> 100 µM"
compound="CC(=O)OC1C(O)COC(Oc2c(C)c3c4c(c2O)[C@@H](C)CC[C@@H]4[C@@H](C)C[C@H]3C=C(C)C)C1O (stereo not given in full)" measured_quantity=TGI reported_result="33.2 µM"
compound=COc1cc(/C=C\c2cc(/C=C\c3ccc(O)c(OC)c3)n(C(=O)Nc3ccc(C(F)(F)F)cc3)n2)ccc1O measured_quantity=TGI reported_result="6.59 µM"
compound=Cc1c2ccccc2nc2[nH]c3ccncc3c12 measured_quantity=TGI reported_result="77.7 µM"
compound=O=C1c2ccccc2C(=O)c2c1c(NCCNCCO)c1cc[nH]c1c2NCCNCCO measured_quantity=TGI reported_result="47.8 µM"
compound=O=S(=O)(O)c1cc(O)c2c(O)c(N=Nc3ccc(/C=C/c4ccc(N=Nc5c(S(=O)(=O)O)cc6cc(S(=O)(=O)O)cc(O)c6c5O)cc4S(=O)(=O)O)c(S(=O)(=O)O)c3)c(S(=O)(=O)O)cc2c1 measured_quantity=TGI reported_result="> 100 µM"
compound="CC1(Br)C(=O)NC(=O)N([C@H]2C[C@H](O)[C@@H](CO)O2)C1N=[N+]=[N-] (stereo not given in full)" measured_quantity=TGI reported_result="> 100 µM"
compound="CN1NC(c2ccccc2)=C(C#N)C(=O)CC1c1ccccc1Cl (stereo not given)" measured_quantity=TGI reported_result="> 100 µM"
compound="Cc1cc(Cl)ccc1N1C(=O)C(=O)C(c2nc3ccccc3s2)/C(=N\\NC(=O)c2ccccc2O)C1=O (stereo not given)" measured_quantity=TGI reported_result="> 100 µM"
compound=N#C/C(=C\N1CCNC1=S)C(=O)c1ccc2ccccc2c1 measured_quantity=TGI reported_result="> 100 µM"
compound="CC(=O)C1CC2(c3ccccc3)C(=O)c3ccccc3N2O1 (stereo not given)" measured_quantity=TGI reported_result="> 100 µM"

====

Tested on: PC-3 prostate
Assay: NCI tumour cell line growth inhibition, 48 h; in the data active = GI50 below about 0.43 µM; inactive = the rest
Labels: active, inactive

molecule=COc1cc(C)c(N(C)C(=O)CN(C)C)cc1Nc1nc(Nc2cccc(F)c2C(N)=O)c2cc[nH]c2n1 label_class=inactive
molecule="Cc1ccc(NCCN(C)CC(C)O)c2c(=O)c3ccc(Cl)cc3sc12 (stereo not drawn)" label_class=inactive
molecule=c1ccc(CN2CCC3(CC2)ONC2=NCCN23)cc1 label_class=inactive
molecule=CN([N-]C(=O)CC(=O)[N-]N(C)C(=S)c1ccccc1)C(=S)c1ccccc1.[Cu+2] label_class=active
molecule=Cc1cc2cc(Oc3ccnc(Nc4cccc(CS(=O)(=O)NCCN(C)C)c4)n3)ccc2[nH]1 label_class=inactive
molecule=COc1ccc(-n2nc(C)c3c(Nc4ccc(NC(=O)Nc5cc(C(F)(F)F)ccc5F)cc4)ncnc32)cc1 label_class=inactive
molecule=CC(=O)c1ccc(NCn2nc(-c3ccccc3O)oc2=S)cc1 label_class=inactive
molecule=COc1ccccc1NC(=O)N/C(N)=N/c1nc2ccccc2s1 label_class=active
molecule=Cc1ccc2nc(NC(=O)CSC(=S)N3CCN(Cc4ccccc4)CC3)sc2c1 label_class=inactive
molecule=N#C/C(=C/c1cccs1)c1cccs1 label_class=inactive
molecule=COc1cc2c3c(n(CCCn4cccn4)c(=O)c2cc1OC)-c1cc2c(cc1C3=O)OCO2 label_class=inactive
molecule="COc1cccc2c1C(=O)c1c(O)c3c(c(O)c1C2=O)C[C@@](O)(C(=O)COC(=O)c1cccnc1)C[C@@H]3OC1CC(N)C(O)C(C)O1 (stereo partly drawn)" label_class=active
molecule=COc1cc2c(c(OC)c1OC)C(=O)c1c-2n(CCCN)c(=O)c2cc([N+](=O)[O-])ccc12 label_class=inactive

====

Test system: NCI-H23 lung
Assay: NCI tumour cell line growth inhibition, 48 h; in the data active means GI50 below about 0.43 µM; inactive means the rest
Labels: active, inactive

smiles_representation=CN([N-]C(=O)CC(=O)[N-]N(C)C(=S)c1ccccc1)C(=S)c1ccccc1.[Cu+2] subject_of_test="NCI-H23 lung" label_class=active
smiles_representation=CC(=O)O[C@H]1CC[C@]2(C)[C@H]3C(=O)C=C4[C@@H]5C[C@](C)(C(=O)N6CCCNCC6)CC[C@]5(C)CC[C@@]4(C)[C@]3(C)CC[C@H]2C1(C)C subject_of_test="NCI-H23 lung" label_class=inactive
smiles_representation=CN1CCN(c2ccc3nc(-c4ccc5nc(-c6ccc(C(F)(F)F)cc6)[nH]c5c4)[nH]c3c2)CC1 subject_of_test="NCI-H23 lung" label_class=inactive
smiles_representation=CCCCn1c(=O)c(/C=C/C(=O)/C=C/c2ccc(O)c(OC)c2)cc2ccc(Cl)cc21 subject_of_test="NCI-H23 lung" label_class=inactive

====

System: SNB-19 CNS
Assay: NCI tumour cell line growth inhibition, 48 h
measured.quantity: TGI

compound=CNNC1=NS(=O)(=O)c2cc(C(=O)OC)c(Cl)cc2S1 measured_quantity=TGI reported_result="> 10 µM"
compound=O=S(O)CCCCSSCCCCS(=O)(O)=S measured_quantity=TGI reported_result="> 100 µM"
compound=CC(=O)[CH-]C(=O)c1ccccc1.CC(=O)[CH-]C(=O)c1ccccc1.[O-]c1ccc(O)cc1.[O-]c1ccc(O)cc1.[Ti+4] measured_quantity=TGI reported_result="40 µM"
compound="C/C(=N\\O)C(CN(C)C)C(c1ccccc1)c1c(O)c2ccccc2oc1=O (stereo unspecified)" measured_quantity=TGI reported_result="> 100 µM"
compound=N#C/C(=C\N1CCNC1=S)C(=O)c1ccc2ccccc2c1 measured_quantity=TGI reported_result="> 100 µM"
compound=CN1CCN(c2ccc(NC3=C(Cl)C(=O)c4ncccc4C3=O)cc2C(F)(F)F)CC1 measured_quantity=TGI reported_result="26.8 µM"
compound=NC(=O)c1nnc2cc(F)c(F)cc2c1N measured_quantity=TGI reported_result="> 100 µM"
compound="N#CC1(C#N)C(c2ccccc2)NC23CCCCC2C1(C#N)C(=O)N3 (stereo unspecified)" measured_quantity=TGI reported_result="> 100 µM"
compound=CC(C)(C)OC(=O)N(CCCn1c2c(c3ccccc3c1=O)C(=O)c1ccccc1-2)CCN(CCCn1c2c(c3ccccc3c1=O)C(=O)c1ccccc1-2)C(=O)OC(C)(C)C measured_quantity=TGI reported_result="> 50 µM"
compound=COc1ccc(Oc2nc3cc(C(F)(F)F)ccc3nc2C(C)C)cc1 measured_quantity=TGI reported_result="> 100 µM"
compound=CCCCCn1ncc(-c2c(O)c(O)cc3c(O)c(-c4c(C)cc5c(-c6cnn(CCCCC)n6)c(O)c(O)cc5c4O)c(C)cc23)n1 measured_quantity=TGI reported_result="5.26 µM"
compound=Clc1ccc(OCc2nnc(CCCCCCCCc3nnc(COc4ccc(Cl)cc4)o3)o2)cc1 measured_quantity=TGI reported_result="> 100 µM"
compound=CCCCNC(=O)C1=C(C)NC(C)=C(C(=O)NCCCC)C1 measured_quantity=TGI reported_result="> 100 µM"
compound=CCOP(=O)(C/C(=N/NC(C)(C)C)C(=O)Nc1nc2ccc(C)cc2s1)OCC measured_quantity=TGI reported_result="> 100 µM"
compound=C[C@H](C(=O)N1C(=O)O[C@@H](c2ccccc2)[C@H]1C)[C@H](c1ccccc1)N(Cc1ccccc1)OC(=O)c1ccccc1 measured_quantity=TGI reported_result="> 100 µM"
compound=O=C(CCNC(=O)OCc1ccccc1)OCCCNC(=O)OCc1ccccc1 measured_quantity=TGI reported_result="> 100 µM"
